Here, each record is paired with measured IC50 data.
# EXPERIMENTAL_TARGET: mTORC1 (Homo sapiens, UniProt P42345+P62942)
# Construct: endogenous in cells
# ASSAY_NAME: mTORC1 inhibition in PC-3 cells, AlphaLISA of p70S6K pT389 levels
# CONDITIONS: mTORC1 as measured by inhibition of p70S6K pT389 levels, read-out: mTROC1 IC50

{"COMPOUND": "CO[C@@H]1C[C@H](C[C@@H](C)[C@@H]2CC(=O)[C@H](C)/C=C(\\C)[C@@H](O)[C@@H](OC)C(=O)[C@H](C)C[C@H](C)/C=C/C=C/C=C(\\C)[C@@H](OCC3COC3)C[C@@H]3CC[C@@H](C)[C@@](O)(O3)C(=O)C(=O)N3CCCC[C@H]3C(=O)O2)CC[C@H]1O [Compound 521]", "EXPERIMENTAL_TARGET": "mTORC1 (Homo sapiens, UniProt P42345+P62942)", "IC50": "< 800 pM"}
{"COMPOUND": "CO[C@@H]1C[C@H](C[C@@H](C)[C@@H]2CC(=O)[C@H](C)/C=C(\\C)[C@@H](O)[C@@H](OC)C(=O)[C@H](C)C[C@H](C)/C=C/C=C/C=C(\\C)[C@H](OC3COC3)C[C@@H]3CC[C@@H](C)[C@@](O)(O3)C(=O)C(=O)N3CCCC[C@H]3C(=O)O2)CC[C@H]1O [Compound 124]", "EXPERIMENTAL_TARGET": "mTORC1 (Homo sapiens, UniProt P42345+P62942)", "IC50": "> 1500 pM"}
{"COMPOUND": "COCCO[C@H]1C[C@@H]2CC[C@@H](C)[C@@](O)(O2)C(=O)C(=O)N2CCCC[C@H]2C(=O)O[C@H]([C@H](C)C[C@@H]2CC[C@@H](O)[C@H](OC)C2)CC(=O)[C@H](C)/C=C(\\C)[C@@H](O)[C@@H](OC)C(=O)[C@H](C)C[C@H](C)/C=C/C=C/C=C/1C [Compound 529]", "EXPERIMENTAL_TARGET": "mTORC1 (Homo sapiens, UniProt P42345+P62942)", "IC50": "< 800 pM"}
{"COMPOUND": "CO[C@@H]1C[C@H](C[C@@H](C)[C@@H]2CC(=O)[C@H](C)/C=C(\\C)[C@@H](O)[C@@H](OC)C(=O)[C@H](C)C[C@H](C)/C=C/C=C/C=C(\\C)[C@H](OCC3COC3)C[C@@H]3CC[C@@H](C)[C@@](O)(O3)C(=O)C(=O)N3CCCC[C@H]3C(=O)O2)CC[C@H]1OCCO [Compound 75]", "EXPERIMENTAL_TARGET": "mTORC1 (Homo sapiens, UniProt P42345+P62942)", "IC50": "> 1500 pM"}
{"COMPOUND": "CO[C@@H]1C[C@H](C[C@@H](C)[C@@H]2CC(=O)[C@H](C)/C=C(\\C)[C@@H](O)[C@@H](OC)C(=O)[C@H](C)C[C@H](C)/C=C/C=C/C=C(\\C)[C@@H](OCCCCO)C[C@@H]3CC[C@@H](C)[C@@](O)(O3)C(=O)C(=O)N3CCCC[C@H]3C(=O)O2)CC[C@H]1OCCCN1CCOCC1 [Compound 426]", "EXPERIMENTAL_TARGET": "mTORC1 (Homo sapiens, UniProt P42345+P62942)", "IC50": "800 to 1500 pM"}

Name the recorded IC50 of the compound listed here: CO[C@@H]1C[C@H](C[C@@H](C)[C@@H]2CC(=O)[C@H](C)/C=C(\C)[C@@H](O)[C@@H](OC)C(=O)[C@H](C)C[C@H](C)/C=C/C=C/C=C(\C)[C@H](OCCCCO)C[C@@H]3CC[C@@H](C)[C@@](O)(O3)C(=O)C(=O)N3CCCC[C@H]3C(=O)O2)CC[C@H]1OCCCN1CCOCC1 [Compound 27]
800 to 1500 pM

====

# EXPERIMENTAL_TARGET: FKBP12 ternary complex with FRB (Homo sapiens, UniProt P42345+P62942)
# ASSAY_NAME: SPR assay to characterize ternary complex formation with FKBP12 (FRB injected over compound-saturated FKBP12)
# CONDITIONS: FRB dilutions with 100 nM test compound over immobilized FKBP12
pKd: −log10 of the molar value.
Here, each record is paired with measured pKd data.

{"SMILES_ENTRY": "CO[C@@H]1C[C@H](C[C@@H](C)[C@@H]2CC(=O)[C@H](C)/C=C(\\C)[C@@H](O)[C@@H](OC)C(=O)[C@H](C)C[C@H](C)/C=C/C=C/C=C(\\C)[C@@H](OCCOCCO)C[C@@H]3CC[C@@H](C)[C@@](O)(O3)C(=O)C(=O)N3CCCC[C@H]3C(=O)O2)CC[C@H]1O", "EXPERIMENTAL_TARGET": "FKBP12 ternary complex with FRB (Homo sapiens, UniProt P42345+P62942)", "RECORDED_RESULT": "5.96 to 6.30"}
{"SMILES_ENTRY": "CO[C@@H]1C[C@H](C[C@@H](C)[C@@H]2CC(=O)[C@H](C)/C=C(\\C)[C@@H](O)[C@@H](OC)C(=O)[C@H](C)C[C@H](C)/C=C/C=C/C=C(\\C)[C@@H](OCCCCO)C[C@@H]3CC[C@@H](C)[C@@](O)(O3)C(=O)C(=O)N3CCCC[C@H]3C(=O)O2)CC[C@H]1OCCCN1CCOCC1", "EXPERIMENTAL_TARGET": "FKBP12 ternary complex with FRB (Homo sapiens, UniProt P42345+P62942)", "RECORDED_RESULT": "5.96 to 6.30"}
{"SMILES_ENTRY": "COCCO[C@@H]1C[C@@H]2CC[C@@H](C)[C@@](O)(O2)C(=O)C(=O)N2CCCC[C@H]2C(=O)O[C@H]([C@H](C)C[C@@H]2CC[C@@H](OCCCN3CCN(C)CC3)[C@H](OC)C2)CC(=O)[C@H](C)/C=C(\\C)[C@@H](O)[C@@H](OC)C(=O)[C@H](C)C[C@H](C)/C=C/C=C/C=C/1C", "EXPERIMENTAL_TARGET": "FKBP12 ternary complex with FRB (Homo sapiens, UniProt P42345+P62942)", "RECORDED_RESULT": "< 5.96"}
{"SMILES_ENTRY": "CO[C@@H]1C[C@H](C[C@@H](C)[C@@H]2CC(=O)[C@H](C)/C=C(\\C)[C@@H](O)[C@@H](OC)C(=O)[C@H](C)C[C@H](C)/C=C/C=C/C=C(\\C)[C@H](OC3CC3)C[C@@H]3CC[C@@H](C)[C@@](O)(O3)C(=O)C(=O)N3CCCC[C@H]3C(=O)O2)CC[C@H]1OCCO", "EXPERIMENTAL_TARGET": "FKBP12 ternary complex with FRB (Homo sapiens, UniProt P42345+P62942)", "RECORDED_RESULT": "> 6.30"}
{"SMILES_ENTRY": "CO[C@@H]1C[C@H](C[C@@H](C)[C@@H]2CC(=O)[C@H](C)/C=C(\\C)[C@@H](O)[C@@H](OC)C(=O)[C@H](C)C[C@H](C)/C=C/C=C/C=C(\\C)[C@@H](OC3COC3)C[C@@H]3CC[C@@H](C)[C@@](O)(O3)C(=O)C(=O)N3CCCC[C@H]3C(=O)O2)CC[C@H]1O", "EXPERIMENTAL_TARGET": "FKBP12 ternary complex with FRB (Homo sapiens, UniProt P42345+P62942)", "RECORDED_RESULT": "< 5.96"}

We next turn to a different molecule, shown below.
Name the recorded pKd of the molecule listed here: COCCO[C@@H]1C[C@@H]2CC[C@@H](C)[C@@](O)(O2)C(=O)C(=O)N2CCCC[C@H]2C(=O)O[C@H]([C@H](C)C[C@@H]2CC[C@@H](O)[C@H](OC)C2)CC(=O)[C@H](C)/C=C(\C)[C@@H](O)[C@@H](OC)C(=O)[C@H](C)C[C@H](C)/C=C/C=C/C=C/1C
5.96 to 6.30

====

Here, each record is paired with measured IC50 data.
# EXPERIMENTAL_TARGET: mTORC1 (Homo sapiens, UniProt P42345+P62942)
# Construct: endogenous in cells; host or cells: PC-3 cells
# ASSAY_NAME: mTORC1 inhibition in PC-3 cells, AlphaLISA of p70S6K pT389 levels
# Type: cell-based
# CONDITIONS: mTORC1 as measured by inhibition of p70S6K pT389 levels, read-out: mTROC1 IC50

# example entries with known answers
{"MOLECULE": "CO[C@@H]1C[C@H](C[C@@H](C)[C@@H]2CC(=O)[C@H](C)/C=C(\\C)[C@@H](O)[C@@H](OC)C(=O)[C@H](C)C[C@H](C)/C=C/C=C/C=C(\\C)[C@@H](OCCO)C[C@@H]3CC[C@@H](C)[C@@](O)(O3)C(=O)C(=O)N3CCCC[C@H]3C(=O)O2)CC[C@H]1OCCCN1CCOC[C@H]1C [Compound 404]", "IC50": "< 0.8 nM"}
{"MOLECULE": "CO[C@@H]1C[C@H](C[C@@H](C)[C@@H]2CC(=O)[C@H](C)/C=C(\\C)[C@@H](O)[C@@H](OC)C(=O)[C@H](C)C[C@H](C)/C=C/C=C/C=C(\\C)[C@@H](OC3COC3)C[C@@H]3CC[C@@H](C)[C@@](O)(O3)C(=O)C(=O)N3CCCC[C@H]3C(=O)O2)CC[C@H]1O [Compound 523]", "IC50": "< 0.8 nM"}
{"MOLECULE": "CO[C@@H]1C[C@H](C[C@@H](C)[C@@H]2CC(=O)[C@H](C)/C=C(\\C)[C@@H](O)[C@@H](OC)C(=O)[C@H](C)C[C@H](C)/C=C/C=C/C=C(\\C)[C@H](OCCOCCO)C[C@@H]3CC[C@@H](C)[C@@](O)(O3)C(=O)C(=O)N3CCCC[C@H]3C(=O)O2)CC[C@H]1O [Compound 125]", "IC50": "0.8 to 1.5 nM"}
{"MOLECULE": "COCCO[C@@H]1C[C@@H]2CC[C@@H](C)[C@@](O)(O2)C(=O)C(=O)N2CCCC[C@H]2C(=O)O[C@H]([C@H](C)C[C@@H]2CC[C@@H](O)[C@H](OC)C2)CC(=O)[C@H](C)/C=C(\\C)[C@@H](O)[C@@H](OC)C(=O)[C@H](C)C[C@H](C)/C=C/C=C/C=C/1C [Compound 130]", "IC50": "0.8 to 1.5 nM"}

We next turn to a different molecule, shown below.
Name the recorded IC50 of the molecule listed here: CO[C@@H]1C[C@H](C[C@@H](C)[C@@H]2CC(=O)[C@H](C)/C=C(\C)[C@@H](O)[C@@H](OC)C(=O)[C@H](C)C[C@H](C)/C=C/C=C/C=C(\C)[C@@H](OC3CC3)C[C@@H]3CC[C@@H](C)[C@@](O)(O3)C(=O)C(=O)N3CCCC[C@H]3C(=O)O2)CC[C@H]1OCCO [Compound 527]
< 0.8 nM
